Test system: YSK4;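 also: kd values determined as follow-up on hits from a single-replicate KINOMEscan panel screen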
Construct: gene MAP3K19
pKd: −log10 of the molar value.
Metric name: pKd

- Compound: "Cc1ccc(NC(=O)Nc2ccccc2F)cc1-c1ccc(C(=O)Nc2ccncc2)cc1"
  Target or test system: "YSK4"
  Measured number: 5.82
- Compound: "O=C(Nc1n[nH]c2nc(-c3cccs3)c(Br)cc12)C1CC1"
  Target or test system: "YSK4"
  Measured number: 6.70
- Compound: "COc1ccc(CSc2nnc(-c3ccc4nccn4c3)o2)cc1C(F)(F)F"
  Target or test system: "YSK4"
  Measured number: 7.66
- Compound: "c1ccc(-c2ccnc3[nH]ccc23)cc1"
  Target or test system: "YSK4"
  Measured number: 6.33
- Compound: "Nc1cccc(-c2ccc3c(N)n[nH]c3c2)n1"
  Target or test system: "YSK4"
  Measured number: 6.89
- Compound: "COC(=O)C(Cc1ccccc1)NC(=O)NC1CCN(c2ccnc(Nc3ccc(F)cc3)n2)C1 (stereo not shown)"
  Target or test system: "YSK4"
  Measured number: 5.85
- Compound: "Cc1ccc(NC(=O)Nc2ccccc2)cc1-c1ccc(C(=O)Nc2ccncc2)cc1"
  Target or test system: "YSK4"
  Measured number: 7.15

Reference source for all entries: paper PMC5540273
